- Test target: trypanothione reductase (TR) (Trypanosoma brucei, UniProt P39051)
- Construct: gene TPR; recombinant Trypanosoma brucei TR
- Sequence (P39051 whole entry): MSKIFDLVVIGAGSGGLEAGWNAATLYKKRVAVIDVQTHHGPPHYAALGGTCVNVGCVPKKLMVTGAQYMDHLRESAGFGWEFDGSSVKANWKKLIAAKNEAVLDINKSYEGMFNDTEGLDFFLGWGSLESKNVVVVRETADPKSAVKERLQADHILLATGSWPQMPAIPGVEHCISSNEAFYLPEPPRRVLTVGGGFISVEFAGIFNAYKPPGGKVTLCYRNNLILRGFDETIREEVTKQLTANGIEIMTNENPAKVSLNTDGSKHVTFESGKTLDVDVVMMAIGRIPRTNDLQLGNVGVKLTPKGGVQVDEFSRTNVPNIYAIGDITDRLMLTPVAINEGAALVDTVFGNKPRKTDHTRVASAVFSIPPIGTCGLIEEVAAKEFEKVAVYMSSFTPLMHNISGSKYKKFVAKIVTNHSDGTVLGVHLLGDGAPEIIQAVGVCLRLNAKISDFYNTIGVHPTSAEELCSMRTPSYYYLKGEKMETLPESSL
- Assay name: spectrophotometric NADPH consumption ([…] nm) with TS2; Lineweaver-Burk and non-linear regression
- Assay type: biochemical
Recorded metric: pKi
Just the number, please; pKi means minus log10 of the concentration in mol/L.

Which pKi value belongs to CCCCOC(=O)c1ccc2c(c1)[n+]([O-])c(C(=O)C(C)(C)C)c(C(F)(F)F)[n+]2[O-] ?
4.94
